Entries and their measured Activity follow.
# Assay Target: P-selectin (Homo sapiens) (UniProt P16109)
# Sequence (P16109 whole entry): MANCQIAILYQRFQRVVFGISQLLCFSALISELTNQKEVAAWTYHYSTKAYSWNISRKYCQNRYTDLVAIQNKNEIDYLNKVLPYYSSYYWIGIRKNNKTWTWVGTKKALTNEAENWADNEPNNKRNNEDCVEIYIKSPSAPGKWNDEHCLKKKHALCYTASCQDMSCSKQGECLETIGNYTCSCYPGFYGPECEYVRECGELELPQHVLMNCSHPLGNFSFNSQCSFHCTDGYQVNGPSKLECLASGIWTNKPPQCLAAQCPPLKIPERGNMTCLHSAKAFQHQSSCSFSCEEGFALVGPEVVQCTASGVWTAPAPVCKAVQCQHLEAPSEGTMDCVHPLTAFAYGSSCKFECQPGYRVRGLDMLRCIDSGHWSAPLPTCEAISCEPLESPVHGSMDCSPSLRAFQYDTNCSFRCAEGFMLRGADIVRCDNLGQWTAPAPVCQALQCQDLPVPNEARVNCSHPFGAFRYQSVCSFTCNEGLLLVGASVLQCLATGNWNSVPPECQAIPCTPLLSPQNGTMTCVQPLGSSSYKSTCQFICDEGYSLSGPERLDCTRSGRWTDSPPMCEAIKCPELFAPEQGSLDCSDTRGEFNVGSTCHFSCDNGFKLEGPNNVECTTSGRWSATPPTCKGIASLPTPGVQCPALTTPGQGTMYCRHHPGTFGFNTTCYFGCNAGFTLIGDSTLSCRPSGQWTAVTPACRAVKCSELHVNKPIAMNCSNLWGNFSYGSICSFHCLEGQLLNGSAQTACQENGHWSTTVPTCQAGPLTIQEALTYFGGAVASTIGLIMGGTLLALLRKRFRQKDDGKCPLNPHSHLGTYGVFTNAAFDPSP
# Test: Inhibition of human HL60 cell adhesion to P-selectin coated on microtiter plates assessed as reduction in adhesion at 200 uM after 3 days by calcein-AM assay relative to untreated cells
# Type: cell-based
# Design: scale not given: the % may be the effect or the level left
# Experimental Context: HL-60

Example entries begin here.
Need Activity, item `COC(=O)[C@@]1(OC(C)=O)C[C@H](OC(C)=O)[C@@H](NC(=O)CC(C)C)[C@H]([C@@H](OC(C)=O)[C@@H](COC(C)=O)OC(C)=O)O1` 10%

Need Activity, item `COC(=O)[C@@]1(OC(C)=O)C[C@H](OC(C)=O)[C@@H](NC(=O)CC(F)(F)F)[C@H]([C@@H](OC(C)=O)[C@@H](COC(C)=O)OC(C)=O)O1` 62%

Need Activity, item `COC(=O)[C@@]1(OC(C)=O)C[C@H](OC(C)=O)[C@@H](NC(=O)CCC(F)(F)F)[C@H]([C@@H](OC(C)=O)[C@@H](COC(C)=O)OC(C)=O)O1` 77%

Below: the item to evaluate.
Need Activity, item `COC(=O)[C@@]1(OC(C)=O)C[C@H](OC(C)=O)[C@@H](NC(=O)CCC(C)C)[C@H]([C@@H](OC(C)=O)[C@@H](COC(C)=O)OC(C)=O)O1` 44%

// provenance: ChEMBL document CHEMBL1157814
